The following molecules are listed with their measured IC50 values.
ASSAYED TARGET: ML1 rabbit melatonin receptor
TEST DETAILS: Melatonergic binding: ML1 rabbit melatonin receptor binding (2-[125I]-iodomelatonin, rabbit parietal cortex)
EXPERIMENTAL CONDITIONS: 37° C., 1 hour, read-out: In-Vitro Receptor Binding Activities ML1 (IC50)

# example entries with known answers
| MOLECULE | IC50 |
| --- | --- |
| COc1cccc(-c2cccc(CNC(=O)C(C)C)c2)c1 [Example 11] | < 10 nM |
| CCCC(=O)NCc1cccc(-c2cccc(OC)c2)c1 [Example 10] | 10 to 50 nM |
| CCNC(=O)NCc1ccccc1-c1cccc(OC)c1 [Example 9] | < 10 nM |
| CCCC(=O)NCc1ccccc1-c1cccc(OC)c1 [Example 7] | 10 to 50 nM |
| CCNC(=O)NCc1cccc(-c2cccc(OC)c2)c1 [Example 12] | 10 to 50 nM |

Lab note: need IC50 with ML1 rabbit melatonin receptor for entry COc1cccc(-c2ccccc2CNC(=O)C(C)C)c1 [Example 8] , please look it up. < 10 nM

And the next one, COc1cccc(-c2cccc(NC(=O)C(C)C)c2)c1 [Example 2] ? > 50 nM

Same again, this time with CCNC(=O)Nc1cccc(-c2cccc(OC)c2)c1 [Example 6] > 50 nM

How about CCCC(=O)Nc1cccc(-c2cccc(OC)c2)c1 [Example 1] ? < 10 nM
